protocol: Cytotoxicity MTS assay in HFF-1 fibroblasts
Type: cell-based
run-parameters: human HFF-1 fibroblasts
measured-endpoint: IC50 at 72 h

Some compounds with recorded IC50 at 72 h:
O=C(COc1ccc2ccccc2c1Br)NCCc1nc2ccccc2[nH]1 [Compound 34]: > 30 µM
O=C(COc1ccc(NC(=O)CCCO)cc1)NCCc1nc2ccccc2[nH]1 [Compound 5]: > 100 µM
O=C(COc1ccccc1)NCCc1nc2ccccc2n1Cc1ccccc1 [Compound 26]: > 100 µM
O=C(COc1ccccc1)NCCc1nc2ccccc2n1CCOc1ccccc1 [Compound 20]: > 30 µM
Cc1ccccc1OCC(=O)NCCc1nc2ccccc2[nH]1 [Compound 17]: > 100 µM

Item O=C(COc1ccccc1[N+](=O)[O-])NCCc1nc2ccccc2[nH]1 [Compound 32] has what recorded IC50 at 72 h?
> 100 µM

Item O=C(COc1ccccc1)NCCc1nc2ccccc2n1CCCOc1ccccc1 [Compound 24] has what recorded IC50 at 72 h?
> 30 µM

Item O=C(COc1ccc2ccccc2c1)NCCc1nc2ccccc2[nH]1 [Compound 35] has what recorded IC50 at 72 h?
> 100 µM

Item C=CCCn1c(CCNC(=O)COc2ccccc2)nc2ccccc21 [Compound 27] has what recorded IC50 at 72 h?
> 100 µM

Item O=C(COc1cccc([N+](=O)[O-])c1)NCCc1nc2ccccc2[nH]1 [Compound 8] has what recorded IC50 at 72 h?
> 100 µM

Item O=C(COc1ccccc1Br)NCCc1nc2ccccc2[nH]1 [Compound 18] has what recorded IC50 at 72 h?
> 100 µM

====

target-desc: cruzain (Trypanosoma cruzi, UniProt P25779)
Construct: made in house; host or cells: Escherichia coli (strain M15)
Sequence (P25779 123-337 limits assumed): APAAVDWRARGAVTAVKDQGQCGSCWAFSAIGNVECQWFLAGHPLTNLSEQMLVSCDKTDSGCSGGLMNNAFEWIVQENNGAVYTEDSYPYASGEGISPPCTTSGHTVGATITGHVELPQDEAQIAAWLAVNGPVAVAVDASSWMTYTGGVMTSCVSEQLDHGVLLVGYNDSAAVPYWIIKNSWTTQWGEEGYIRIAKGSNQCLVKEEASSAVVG
protocol: Cruzain enzyme inhibition assay (cleavage of fluorogenic substrate Z-FR-AMC)
Assay type: biochemical
run-parameters: compound 100 µM; mean of three measures
Decide by inhibition at 100 µM: equal to or exceeding 80% means Y, less means N.

Please review the entries below; each comes with its answer.
COc1ccc2cc(OCC(=O)NCCc3nc4ccccc4[nH]3)ccc2c1: Y
O=C(COc1ccccc1Br)NCCc1nc2ccccc2n1CCOc1ccccc1Br: N
O=C(COc1cccc(N2C(=O)CCC2=O)c1)NCCc1nc2ccccc2[nH]1: N
O=C(COc1ccccc1)NCCc1nc2ccccc2n1Cc1ccccc1: N
O=C(COc1ccccc1)NCCc1nc2ccccc2[nH]1: Y

For this compound, is measured inhibition at 100 µM 80% or higher? Cc1ccccc1OCC(=O)NCCc1nc2ccccc2n1CCOc1ccccc1Br
N

For this compound, is measured inhibition at 100 µM 80% or higher? CC(=O)Nc1cccc(OCC(=O)NCCc2nc3ccccc3[nH]2)c1
N

====

protocol: Experimental distribution coefficient (eLogD) by LC retention time
Format: physicochemical
run-parameters: C18 column (LC retention time), pH 7.4, Table S5
measured-endpoint: chromatographic logD

Some compounds with recorded chromatographic logD:
O=C(COc1ccc(N2C(=O)CCC2=O)cc1)NCCc1nc2ccccc2[nH]1: 1.59
O=C(COc1ccc(NC(=O)CCCO)cc1)NCCc1nc2ccccc2[nH]1: 1.83

Note: attention shifts to another entry.
Item O=C(COc1ccccc1)NCCc1nc2ccccc2n1CCOc1ccccc1Br has what recorded chromatographic logD?
4.5

====

protocol: In vitro metabolic stability in human liver microsomes
Assay type: in vitro ADME
run-parameters: human, liver microsomes, Table 5, CLint/fu, read-out: CLint_u (L/h/kg) human (converted)
measured-endpoint: CLint scaled at 5 µM (L/h/kg)
Return type: number; implicit unit L/h/kg.

Some molecules with recorded CLint scaled at 5 µM:
O=C(COc1ccc2ccccc2c1)NCCc1nc2ccccc2[nH]1: 43.9
C=CCCn1c(CCNC(=O)COc2ccccc2Cl)nc2ccccc21: 501
O=C(COc1ccc(Br)cc1)NCCc1nc2ccccc2[nH]1: 12.5
O=C(COc1ccccc1[N+](=O)[O-])NCCc1nc2ccccc2[nH]1: 39.2

Item O=C(COc1ccccc1Br)NCCc1nc2ccccc2[nH]1 has what recorded CLint scaled at 5 µM?
16

Item Cc1ccccc1OCC(=O)NCCc1nc2ccccc2[nH]1 has what recorded CLint scaled at 5 µM?
31.2

Item O=C(Cn1ccnc1[N+](=O)[O-])NCc1ccccc1 [BZ, benznidazole, reference compound] has what recorded CLint scaled at 5 µM?
1.5

Item Cc1ccccc1OCC(=O)NCCc1nc2ccccc2o1 has what recorded CLint scaled at 5 µM?
26.9

Item O=C(CCc1ccccc1Br)NCCc1nc2ccccc2[nH]1 has what recorded CLint scaled at 5 µM?
38.2
